assay_system: Electric eel AChE (Electrophorus electricus)
Construct: native commercial enzyme from Sigma, no further details
Sequence (O42275 24-633): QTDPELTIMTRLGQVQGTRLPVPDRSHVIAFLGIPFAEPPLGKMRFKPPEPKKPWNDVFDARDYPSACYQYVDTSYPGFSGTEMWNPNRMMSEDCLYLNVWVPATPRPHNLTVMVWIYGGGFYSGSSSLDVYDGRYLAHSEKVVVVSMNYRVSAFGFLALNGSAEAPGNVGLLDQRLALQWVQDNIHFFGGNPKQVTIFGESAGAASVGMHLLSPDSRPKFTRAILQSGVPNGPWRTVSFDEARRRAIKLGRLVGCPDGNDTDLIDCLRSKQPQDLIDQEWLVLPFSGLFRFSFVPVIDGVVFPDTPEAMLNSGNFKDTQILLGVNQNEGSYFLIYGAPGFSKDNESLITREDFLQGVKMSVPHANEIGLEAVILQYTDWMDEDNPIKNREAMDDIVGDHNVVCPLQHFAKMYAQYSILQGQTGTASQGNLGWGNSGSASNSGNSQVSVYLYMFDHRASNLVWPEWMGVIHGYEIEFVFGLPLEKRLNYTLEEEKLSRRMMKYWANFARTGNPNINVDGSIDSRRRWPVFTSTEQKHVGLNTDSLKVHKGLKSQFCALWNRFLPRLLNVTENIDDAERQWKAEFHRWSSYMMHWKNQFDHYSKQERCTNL
assay_explanation: Ellman assay, […] nm
Format: biochemical
assay_context: read-out: Electric eel AChE, IC50 nM; acetylthiocholine iodide substrate, phosphate buffer pH 8.0, 37 °C, 10 min preincubation
observable: IC50 (nM)
Numbers only, in nM.

*Q* If you can, please state the reported IC50 value of CN(C)C(=O)Oc1cccc([N+](C)(C)C)c1 [Neostigmine, reference compound] .
*A* 36.5
